Value source: PubChem BioAssay AID2060890

# key: entry, value: viability, T/C
# Test system: LG0703-F948-PDC complex spheroid viability
# assay name: Anticancer human tumor LG0703-F948-PDC patient-derived lung adenocarcinoma cell line growth inhibition [RAS]
# test parameters: second compound 10 µM; first compound 1 µM; stronger effect = lower value

// below: answered compounds
• C=CC(=O)N1CCN(c2nc(OCC3CCCN3C)nc3c(F)c(-c4nc(N)cc(C)c4C(F)(F)F)c(Cl)cc23)C(C)C1 (stereo not given) + C#Cc1c(F)ccc2cc(O)cc(-c3ncc4c(N5CC6CCC(C5)N6)nc(OCC56CCCN5CC(F)C6)nc4c3F)c12 = 47%
• C[C@@H](NC(=O)c1ncnc(N)c1Cl)c1ncc(C(=O)Nc2cc(C(F)(F)F)c(Cl)cn2)s1 + C#Cc1c(F)ccc2cc(O)cc(-c3ncc4c(N5CC6CCC(C5)N6)nc(OCC56CCCN5CC(F)C6)nc4c3F)c12 = 56.1%
• Cc1nc(N2CCC3(CC2)COC(C)C3N)c(CO)nc1Sc1ccnc(N)c1Cl (stereo not given) + C#Cc1c(F)ccc2cc(O)cc(-c3ncc4c(N5CC6CCC(C5)N6)nc(OCC56CCCN5CC(F)C6)nc4c3F)c12 = 10.6%

Find the recorded viability, T/C belonging to O=C(c1ccc(F)c(F)c1Nc1ccc(I)cc1F)N1CC(O)([C@@H]2CCCCN2)C1 + C#Cc1c(F)ccc2cc(O)cc(-c3ncc4c(N5CC6CCC(C5)N6)nc(OCC56CCCN5CC(F)C6)nc4c3F)c12 and report it.
2.29%

For the compound C=CC(=O)Nc1cc(Nc2nccc(-c3cn(C)c4ccccc34)n2)c(OC)cc1N(C)CCN(C)C + C#Cc1c(F)ccc2cc(O)cc(-c3ncc4c(N5CC6CCC(C5)N6)nc(OCC56CCCN5CC(F)C6)nc4c3F)c12 , what viability, T/C is on record?
4.43%

----------
Quick list: pIC50 per entry.
# Test system: LG0703-F948-PDC complex spheroid viability
# assay name: Anticancer human tumor LG0703-F948-PDC cell line growth inhibition [RAS];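 also: spheroids exposed to agents for 7 days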
# test parameters: curve of first compound; second compound 0.1 µM
// returns pIC50 (minus log10 of molar concentration), number only

* CC(Nc1ccc2c(c1)OCCn1cc(N3C(=O)OCC3C(F)F)nc1-2)C(N)=O (stereo not given) + C#Cc1c(F)ccc2cc(O)cc(-c3ncc4c(N5CC6CCC(C5)N6)nc(OCC56CCCN5CC(F)C6)nc4c3F)c12 | 5.82
* CC1(O)CCCC1n1c(=O)c(C(F)F)cc2cnc(NC3CCN(S(C)(=O)=O)CC3)nc21 (stereo not given) + C=CC(=O)N1CCN(c2nc(OCC3CCCN3C)nc3c(F)c(-c4nc(N)cc(C)c4C(F)(F)F)c(Cl)cc23)C(C)C1 | 5.37
* C=CC(=O)Nc1cc(Nc2nccc(-c3cn(C)c4ccccc34)n2)c(OC)cc1N(C)CCN(C)C + C#Cc1c(F)ccc2cc(O)cc(-c3ncc4c(N5CC6CCC(C5)N6)nc(OCC56CCCN5CC(F)C6)nc4c3F)c12 | 8.04
* Nc1ccn(C2OC(CO)C(O)C2(F)F)c(=O)n1 (stereo not given) + C=CC(=O)N1CCN(c2nc(OCC3CCCN3C)nc3c(F)c(-c4nc(N)cc(C)c4C(F)(F)F)c(Cl)cc23)C(C)C1 | 8.27

Please examine the following record next.
Which pIC50 is listed for CC(Nc1ccc2c(c1)OCCn1cc(N3C(=O)OCC3C(F)F)nc1-2)C(N)=O (stereo not given) + C=CC(=O)N1CCN(c2nc(OCC3CCCN3C)nc3c(F)c(-c4nc(N)cc(C)c4C(F)(F)F)c(Cl)cc23)C(C)C1 ?
6.01
